Reference source: patent US8951964B2

system: genotype 1a replicon (1a-H77); assay: 1a stable replicon (luciferase reporter); assay type: cell-based, HCV; details: Hepatitis C virus, Huh-7, luciferase reporter, HuH-7 cells, 5% FBS
observation_type: EC50

chem_smiles=CC1(S(=O)(=O)NC(=O)[C@@]23C[C@H]2/C=C\CCCCC[C@H](NC(=O)c2cncs2)C(=O)N2C[C@H](Oc4nc5ccccc5c5cc(F)ccc45)C[C@H]2C(=O)N3)CC1 tested_on="genotype 1a replicon (1a-H77)" result="500 to 1000 pM"
chem_smiles=Cn1ccc(C(=O)N[C@H]2CCCCC/C=C\[C@@H]3C[C@@]3(C(=O)NS(=O)(=O)C3CC3)NC(=O)[C@@H]3C[C@@H](Oc4nc5cc(F)ccc5c5cc(F)ccc45)CN3C2=O)n1 tested_on="genotype 1a replicon (1a-H77)" result="500 to 1000 pM"

input: Indicate the recorded EC50 value for this compound: Cn1ccc(C(=O)N[C@H]2CCCCC/C=C\[C@@H]3C[C@@]3(C(=O)NS(=O)(=O)C3(C)CC3)NC(=O)[C@@H]3C[C@@H](Oc4nc5ccccc5c5cccc(F)c45)CN3C2=O)n1
output: < 100 pM

input: Find the measured EC50 of Cn1ccc(C(=O)N[C@H]2CCCCC/C=C\[C@@H]3C[C@@]3(C(=O)NS(=O)(=O)C3CC3)NC(=O)[C@@H]3C[C@@H](Oc4nc5cc(F)ccc5c5cc(OC(F)(F)F)ccc45)CN3C2=O)n1 and report it.
output: 500 to 1000 pM

input: Return EC50 (reported value) for this compound: Cc1cc(C(=O)N[C@H]2CCCCC/C=C\[C@@H]3C[C@@]3(C(=O)NS(=O)(=O)C3CC3)NC(=O)[C@@H]3C[C@@H](Oc4nc5ccccc5c5cc(F)ccc45)CN3C2=O)no1
output: 100 to 500 pM

input: Give EC50 for the following compound: Cn1ccc(C(=O)N[C@H]2CCCCC/C=C\[C@@H]3C[C@@]3(C(=O)NS(=O)(=O)C3CC3)NC(=O)[C@@H]3C[C@@H](Oc4nc5cc(OC(F)(F)F)ccc5c5ccccc45)CN3C2=O)n1
output: < 100 pM

input: Please report EC50 for the following compound: Cc1cc(C(=O)N[C@H]2CCCCC/C=C\[C@@H]3C[C@@]3(C(=O)NS(=O)(=O)C3CC3)NC(=O)[C@@H]3C[C@@H](Oc4nc5ccccc5c5ccc(F)cc45)CN3C2=O)no1
output: 100 to 500 pM

====

Recorded EC50 for the following molecules
system: genotype 1b transient replicon; test: 1b transient replicon (luciferase reporter); type: cell-based, HCV; conditions: Hepatitis C virus, HuH-7 cells, 5% FBS

input: Report EC50 for CC1(S(=O)(=O)NC(=O)[C@@]23C[C@H]2/C=C\CCCCC[C@H](NC(=O)c2ccon2)C(=O)N2C[C@H](Oc4nc5cc(F)ccc5c5ccccc45)C[C@H]2C(=O)N3)CC1
output: 0.1 to 0.5 nM

input: Answer with the recorded EC50 for the molecule listed here: Cc1ccc(C(=O)N[C@H]2CCCCC/C=C\[C@@H]3C[C@@]3(C(=O)NS(=O)(=O)C3(C)CC3)NC(=O)[C@@H]3C[C@@H](Oc4nc5cc(F)ccc5c5ccccc45)CN3C2=O)s1
output: 0.1 to 0.5 nM

input: Tell me its EC50 given Cc1cc(C(=O)N[C@H]2CCCCC/C=C\[C@@H]3C[C@@]3(C(=O)NS(=O)(=O)C3CC3)NC(=O)[C@@H]3C[C@@H](Oc4nc5cc(F)ccc5c5cc(OC(F)(F)F)ccc45)CN3C2=O)no1 as the entry.
output: 0.1 to 0.5 nM

input: Indicate the recorded EC50 value for this molecule: Cc1cc(C(=O)N[C@H]2CCCCC/C=C\[C@@H]3C[C@@]3(C(=O)NS(=O)(=O)C3(C)CC3)NC(=O)[C@@H]3C[C@@H](Oc4nc5cc(F)ccc5c5ccc(OC(F)(F)F)cc45)CN3C2=O)no1
output: 0.1 to 0.5 nM

input: Provide EC50 value for the following molecule: CC1(S(=O)(=O)NC(=O)[C@@]23C[C@H]2/C=C\CCCCC[C@H](NC(=O)c2cncs2)C(=O)N2C[C@H](Oc4nc5ccccc5c5cc(F)ccc45)C[C@H]2C(=O)N3)CC1
output: 0.1 to 0.5 nM

input: State its EC50: Cc1cc(C(=O)N[C@H]2CCCCC/C=C\[C@@H]3C[C@@]3(C(=O)NS(=O)(=O)C3CC3)NC(=O)[C@@H]3C[C@@H](Oc4nc5cc(F)c(F)cc5c5ccc(OC(F)(F)F)cc45)CN3C2=O)no1
output: < 0.1 nM

input: Query EC50 for CC1(S(=O)(=O)NC(=O)[C@@]23C[C@H]2/C=C\CCCCC[C@H](NC(=O)c2ccn(C(F)F)n2)C(=O)N2C[C@H](Oc4nc5cc(F)ccc5c5ccc(OC(F)(F)F)cc45)C[C@H]2C(=O)N3)CC1
output: 0.1 to 0.5 nM

input: Give the reported EC50 for this molecule. CC1(S(=O)(=O)NC(=O)[C@@]23C[C@H]2/C=C\CCCCC[C@H](NC(=O)c2ccon2)C(=O)N2C[C@H](Oc4nc5cc(OC(F)(F)F)ccc5c5cc(F)ccc45)C[C@H]2C(=O)N3)CC1
output: 0.1 to 0.5 nM

input: Give EC50 for the following molecule: Cc1ccc(C(=O)N[C@H]2CCCCC/C=C\[C@@H]3C[C@@]3(C(=O)NS(=O)(=O)C3(C)CC3)NC(=O)[C@@H]3C[C@@H](Oc4nc5ccccc5c5cc(F)ccc45)CN3C2=O)o1
output: 0.1 to 0.5 nM

input: Answer with the recorded EC50 of Cc1cc(C(=O)N[C@H]2CCCCC/C=C\[C@@H]3C[C@@]3(C(=O)NS(=O)(=O)C3(C)CC3)NC(=O)[C@@H]3C[C@@H](Oc4nc5cc(OC(F)(F)F)ccc5c5ccc(F)cc45)CN3C2=O)no1 only.
output: 0.1 to 0.5 nM

input: Provide only the value of recorded EC50 for Cn1ccc(C(=O)N[C@H]2CCCCC/C=C\[C@@H]3C[C@@]3(C(=O)NS(=O)(=O)C3(C)CC3)NC(=O)[C@@H]3C[C@@H](Oc4nc5cc(F)ccc5c5ccccc45)CN3C2=O)n1
output: 0.1 to 0.5 nM

input: Consider the molecule Cn1ccc(C(=O)N[C@H]2CCCCC/C=C\[C@@H]3C[C@@]3(C(=O)NS(=O)(=O)C3CC3)NC(=O)[C@@H]3C[C@@H](Oc4nc5cc(F)ccc5c5cc(OC(F)(F)F)ccc45)CN3C2=O)n1 . State its measured EC50.
output: 0.1 to 0.5 nM

input: Tell me EC50 reported for CC1(S(=O)(=O)NC(=O)[C@@]23C[C@H]2/C=C\CCCCC[C@H](NC(=O)[C@H](O)C(F)(F)F)C(=O)N2C[C@H](Oc4nc5cc(F)ccc5c5cc(F)ccc45)C[C@H]2C(=O)N3)CC1
output: < 0.1 nM

input: Read off the recorded EC50 for Cn1ccc(C(=O)N[C@H]2CCCCC/C=C\[C@@H]3C[C@@]3(C(=O)NS(=O)(=O)C3CC3)NC(=O)[C@@H]3C[C@@H](Oc4nc5ccccc5c5cc(OC(F)(F)F)ccc45)CN3C2=O)n1
output: 0.1 to 0.5 nM

input: # return recorded EC50 for entry Cc1cc(C(=O)N[C@H]2CCCCC/C=C\[C@@H]3C[C@@]3(C(=O)NS(=O)(=O)C3(C)CC3)NC(=O)[C@@H]3C[C@@H](Oc4nc5ccccc5c5ccc(F)cc45)CN3C2=O)no1
output: 0.1 to 0.5 nM

input: Using the record for CC1(S(=O)(=O)NC(=O)[C@@]23C[C@H]2/C=C\CCCCC[C@H](NC(=O)c2ccn(C(F)F)n2)C(=O)N2C[C@H](Oc4nc5ccccc5c5ccc(OC(F)(F)F)cc45)C[C@H]2C(=O)N3)CC1 , state its measured EC50.
output: 0.1 to 0.5 nM

input: Give the reported value of EC50 for this record: Cn1ccc(C(=O)N[C@H]2CCCCC/C=C\[C@@H]3C[C@@]3(C(=O)NS(=O)(=O)C3(C)CC3)NC(=O)[C@@H]3C[C@@H](Oc4nc5ccccc5c5ccc(F)cc45)CN3C2=O)n1
output: 0.1 to 0.5 nM

input: Output measured EC50 for this item: CC1(S(=O)(=O)NC(=O)[C@@]23C[C@H]2/C=C\CCCCC[C@H](NC(=O)c2ccn(C(F)F)n2)C(=O)N2C[C@H](Oc4nc5cc(F)ccc5c5ccccc45)C[C@H]2C(=O)N3)CC1
output: 0.1 to 0.5 nM

input: Give me measured EC50, please, for this molecule: Cn1ccc(C(=O)N[C@H]2CCCCC/C=C\[C@@H]3C[C@@]3(C(=O)NS(=O)(=O)C3CC3)NC(=O)[C@@H]3C[C@@H](Oc4nc5ccccc5c5cccc(F)c45)CN3C2=O)n1
output: 0.5 to 1 nM

input: Identify EC50 associated with the molecule CC1(S(=O)(=O)NC(=O)[C@@]23C[C@H]2/C=C\CCCCC[C@H](NC(=O)[C@H](O)C(F)(F)F)C(=O)N2C[C@H](Oc4nc5cc(OC(F)(F)F)ccc5c5ccc(F)cc45)C[C@H]2C(=O)N3)CC1
output: < 0.1 nM
